# Read-out: Early growth response protein 1 (EGR1) transcription factor, EGR1 (gene 1958)
# Method Notes: LTEA_HepaRG_EGR1: Life Technologies and Expression Analysis (LTEA) Assay for Early growth response protein 1 (EGR1) transcription factor using HepaRG (AID 2283490)
# Assay Setup: mRNA level, 48 h; actives raise or lower the signal
The source made the active and inactive calls. How the source made its calls: active means hit-call score of the fitted dose curve at least 0.9, where 1 is the maximum; inactive means score below 0.9.
Answer with one of the outcomes active, inactive

Here's what some known entries look like.
Molecule	Group Label
CCCCCCCCCCCCCCCC	inactive
C[C@]12C=CC(=O)C=C1CC[C@@H]1[C@@H]2C(=O)C[C@@]2(C)[C@H]1CC[C@]2(O)C(=O)CO	inactive
CC=Cc1ccc(O)c(OC)c1	inactive
NS(=O)(=O)c1cc2c(cc1Cl)NCNS2(=O)=O	inactive
CN1CCCC1=O	inactive

# input What call does the record list for CCc1c(C(=O)NN2CCCCC2)nn(-c2ccc(Cl)cc2Cl)c1-c1ccc(Br)cc1 ?
# output active

# input Please indicate how the test categorized COCCOC[C@H](CC1(C(=O)NC2CCC(C(=O)O)CC2)CCCC1)C(=O)Oc1ccc2c(c1)CCC2 (some centres not stated) .
# output inactive
